# target_desc: T1, human IFNAR-1 protein (form not stated) (human, UniProt P17181 28-436, limits assumed)
# T1 construct: bispecific ELISA
# T1 sequence (looked up): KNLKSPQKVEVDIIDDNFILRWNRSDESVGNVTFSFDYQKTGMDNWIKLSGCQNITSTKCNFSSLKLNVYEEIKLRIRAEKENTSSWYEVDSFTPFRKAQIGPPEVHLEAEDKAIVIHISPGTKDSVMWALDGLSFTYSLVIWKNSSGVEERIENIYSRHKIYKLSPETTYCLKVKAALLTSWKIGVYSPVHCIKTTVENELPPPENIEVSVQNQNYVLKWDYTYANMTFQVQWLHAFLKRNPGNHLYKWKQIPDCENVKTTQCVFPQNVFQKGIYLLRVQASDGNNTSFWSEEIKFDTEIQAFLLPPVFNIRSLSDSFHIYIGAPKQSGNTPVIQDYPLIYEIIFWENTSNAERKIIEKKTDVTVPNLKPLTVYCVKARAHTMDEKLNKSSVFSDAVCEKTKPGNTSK
# protocol_description: affinity ranking of expressed humanized 485G10 IgGs (method not named)
recorded_metric: kon (M⁻¹ s⁻¹)
Give bare numbers, in M⁻¹ s⁻¹.

{"columns": ["binder", "recorded_metric", "endpoint_unit", "result_value"],
 "data": [
  ["485G10 humanized VH2 + VL4 (antibody, V domains shown, Humanized IgG expressed in HEK293; also called VH2 + VL4 (485G10)) VH: QVQLVQSGAEVKKPGASVKLSCKASGFNIKDYYIHWVKQAPGQGLEWIGRIDPEDAETKYAPKFQGRVTMTADTSISTAYMELSRLRSDDTVVYYCGRYHGYWALDYWGQGTLVTVSS VL: DIQMTQSPSSLSTSVGDRVTVTCKTSQNVGTNVAWYQQKPGKAPKPLIYSTSYRYSGVPSRFSGSGSGTDFTLTISSVQPEDFATYYCHQYFSYPYTFGPGTKLDIK", "kon", "M⁻¹ s⁻¹", 303000],
  ["485G10 humanized VH3 + VL3 (antibody, V domains shown, Humanized IgG expressed in HEK293; also called VH3 + VL3 (485G10)) VH: QVQLVQSGAEVKKPGASVKLSCKGSGFNIKDYYIHWVKQAPGQGLEWIGRIDPEDAETKYAPKFQGRATITADTSISTAYLELSRLRSDDTVVYYCGRYHGYWALDYWGQGTLVTVSS VL: DIQMTQSPSSLSTSVGDRVTITCKTSQNVGTNVAWYQQKPGKAPKPLIYSTSYRYSGVPSRFSGSGSGTDFTLTISSVQPEDFATYYCHQYFSYPYTFGPGTKLDIK", "kon", "M⁻¹ s⁻¹", 332000],
  ["485G10 humanized VH0 + VL1 (antibody, V domains shown, Humanized IgG expressed in HEK293; also called VH0 + VL1 (485G10)) VH: QVQLVQSGAEVKKPGASVKVSCKASGFNIKDYYIHWVRQAPGQGLEWMGRIDPEDAETKYAPKFQGRVTMTRDTSISTAYMELSRLRSDDTVVYYCARYHGYWALDYWGQGTLVTVSS VL: DIQMTQSPSSLSASVGDRVTITCKTSQNVGTNVAWFQQKPGKAPKSLIYSTSYRYSGVPSRFSGSGSGTDFTLTISSLQPEDFATYYCHQYFSYPYTFGPGTKVDIK", "kon", "M⁻¹ s⁻¹", 509000]
]}

Please examine the following record next.
IN: Requested read-out: kon. Entry: 485G10 humanized VH0 + VL3 (antibody, V domains shown, Humanized IgG expressed in HEK293; also called VH0 + VL3 (485G10)) VH: QVQLVQSGAEVKKPGASVKVSCKASGFNIKDYYIHWVRQAPGQGLEWMGRIDPEDAETKYAPKFQGRVTMTRDTSISTAYMELSRLRSDDTVVYYCARYHGYWALDYWGQGTLVTVSS VL: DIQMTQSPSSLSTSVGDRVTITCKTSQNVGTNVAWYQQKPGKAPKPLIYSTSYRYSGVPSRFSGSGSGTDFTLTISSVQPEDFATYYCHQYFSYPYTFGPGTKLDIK
OUT: 294000
